Assay: label from the status in PepcDB records
readoutType: protein production

{"sequenceText": "MSPTSMYIAWGWKDIIPQLPALIHAFQTSEMNTPKMRRLCKFTALPEAMNNIGDRSDVYSFRIFLGTIITVKVSYETLDRLTARHTSLRCYRVACLRIKYAYYTNNNASPGHSFNIKLNIDTGVKGSI", "protein production": "failed"}
{"sequenceText": "MVIQEGFSFGNFIIDVFSIFLFILWFWLLITISGDLFRRHDVSGFAKVLWVIFLIVLPYIGVFAYILTQGRGMAERNQERAREARNELRQVVGFSVADELEKLDRLKASGSISEDEFKRLRAKLVE", "protein production": "failed"}
{"sequenceText": "MQEQVSNVRARIYKPAKSTMQSGHSKLKAWKLEFEPSCTQYTEPLMNWTGSHDTKQQVCLSFTTRELAIAYAVAHKIDYTVLQDNPRTIVPKSYADNFTKPRDM", "protein production": "not failed"}
{"sequenceText": "KYTQNNFITGVRAINEFCLKSSDLEQLRKIRRRSPHEDTESFTVYLRSDVEAKSLEVWGSPEALAREKKLRKEAEIEYRERLFRNQKILREYRD", "protein production": "not failed"}

INPUT: Recorded protein production for MGHHHHHHSHMRCQESMSAVLTAEQALKLVGEMFVYHMPFNRALGLELERYEKAFAQLAFNNQPMMVGNWAQSILHGGVIASALDVAAGLVCVGSTLTRHETISEDELRQRLSRMGTIDLRVDYLRPGRGNRFTATSSLLRAGNKVAVARVELHNEDQLYIASATATYMVG , please?
OUTPUT: failed
